Quick reference for Fmax, maximum possible bioavailability after oral administration (well-stirred) among some compounds
- Test system: rat hepatocytes
- Test protocol: Hepatocyte assay to determine the metabolic stability
- Format: in vitro ADME
- Conditions: after incubation with rat hepatocytes
Measure: Fmax, maximum possible bioavailability after oral administration (well-stirred) (%)

>  <Compound>
CC1=C(C#N)[C@@H](c2ccc(C#N)cc2S(C)(=O)=O)N(S(=O)(=O)C2CC2)C(=O)N1c1cccc(C(F)(F)F)c1 [Example 32]

>  <Value reported>
97

$$$$
>  <Compound>
CCS(=O)(=O)c1cc(C#N)ccc1[C@@H]1C(C#N)=C(C)N(c2cccc(C(F)(F)F)c2)C(=O)N1S(C)(=O)=O [Example 129]

>  <Value reported>
79

$$$$
>  <Compound>
CC1=C(C#N)[C@@H](c2ccc(C#N)cc2S(C)(=O)=O)N(C(=O)NCCO)C(=O)N1c1cccc(C(F)(F)F)c1 [Example 10]

>  <Value reported>
65

$$$$

* * *

- Test system: rat hepatocytes
- Test protocol: Hepatocyte assay to determine the metabolic stability
- Format: in vitro ADME
- Conditions: after incubation with rat hepatocytes
Measure: Fmax, maximum possible bioavailability after oral administration (well-stirred) (%)

>  <Molecule>
CC1=C(C#N)[C@@H](c2ccc(C#N)cc2S(C)(=O)=O)N(c2cccc(C(F)(F)F)c2)C(=O)N1c1cccc(C(F)(F)F)c1 [Example 118]

>  <Target desc>
rat hepatocytes

>  <Unit tag>
%

>  <Value reported>
86

$$$$
>  <Molecule>
CC1=C(C#N)[C@@H](c2ccc(C#N)cc2S(C)(=O)=O)N(c2ccc(C#N)cc2)C(=O)N1c1cccc(C(F)(F)F)c1 [Example 117]

>  <Target desc>
rat hepatocytes

>  <Unit tag>
%

>  <Value reported>
97

$$$$
>  <Molecule>
CC1=C(C#N)[C@@H](c2ccc(C#N)cc2S(C)(=O)=O)N(S(=O)(=O)c2cn(C)c(C)n2)C(=O)N1c1cccc(C(F)(F)F)c1 [Example 92]

>  <Target desc>
rat hepatocytes

>  <Unit tag>
%

>  <Value reported>
83

$$$$
>  <Molecule>
CCS(=O)(=O)c1cc(C#N)ccc1[C@H]1NC(=O)N(c2cccc(C(F)(F)F)c2)C(C)=C1C#N [Example 127]

>  <Target desc>
rat hepatocytes

>  <Unit tag>
%

>  <Value reported>
94

$$$$
>  <Molecule>
CC1=C(C#N)[C@@H](c2ccc(C#N)cc2S(C)(=O)=O)N(CC#N)C(=O)N1c1cccc(C(F)(F)F)c1 [Example 116]

>  <Target desc>
rat hepatocytes

>  <Unit tag>
%

>  <Value reported>
91

$$$$
>  <Molecule>
CC1=C(C#N)[C@@H](c2ccc(C#N)cc2S(C)(=O)=O)N(CC(=O)N2CCNC(=O)C2)C(=O)N1c1cccc(C(F)(F)F)c1 [Example 25]

>  <Target desc>
rat hepatocytes

>  <Unit tag>
%

>  <Value reported>
93

$$$$

* * *

- Tested on: rat hepatocytes
- Test protocol: Hepatocyte assay to determine the metabolic stability
- Assay type: in vitro ADME
- Conditions: after incubation with rat hepatocytes
Measure: Fmax, maximum possible bioavailability after oral administration (well-stirred) (%)

>  <Compound>
CN1CC2=C(C1=O)[C@@H](c1ccc(C#N)cc1S(C)(=O)=O)N(S(C)(=O)=O)C(=O)N2c1cccc(C(F)(F)F)c1 [Example 36]

>  <Unit tag>
%

>  <Value reported>
89

$$$$
>  <Compound>
CCS(=O)(=O)c1cc(C#N)ccc1[C@@H]1C(C#N)=C(C)N(c2cccc(C(F)(F)F)c2)C(=O)N1C [Example 128]

>  <Unit tag>
%

>  <Value reported>
78

$$$$
>  <Compound>
CC1=C(C#N)[C@@H](c2ccc(C#N)cc2S(C)(=O)=O)N(CC(N)=O)C(=O)N1c1cccc(C(F)(F)F)c1 [Example 22]

>  <Unit tag>
%

>  <Value reported>
95

$$$$
>  <Compound>
CC1=C(C#N)[C@@H](c2ccc(C#N)cc2S(C)(=O)=O)N(C)C(=O)N1c1cccc(C(F)(F)F)c1 [Example 33]

>  <Unit tag>
%

>  <Value reported>
87

$$$$
>  <Compound>
CC1=C(C#N)[C@@H](c2ccc(C#N)cc2S(C)(=O)=O)N(S(=O)(=O)c2ccc(F)cc2)C(=O)N1c1cccc(C(F)(F)F)c1 [Example 91]

>  <Unit tag>
%

>  <Value reported>
83

$$$$
>  <Compound>
CN1CC2=C(C1=O)C(c1ccc(C#N)cc1S(C)(=O)=O)N(C(=O)NCCO)C(=O)N2c1cccc(C(F)(F)F)c1 (racemic) [Example 38]

>  <Unit tag>
%

>  <Value reported>
96

$$$$
